// reported percentage of EdU-negative for each item listed
test system: MCF7; assay: percentage of EdU-negative (G0-arrested) nuclei per well, 72 h; higher = more G0 arrest; details: protein concentration 0.0225 µM; reference: sequence is the full UniProt precursor, the tested protein was the secreted form or ectodomain;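 further: secreted proteins added to cultured cells, EdU pulse at the end, nuclei found by Hoechst imaging, EdU status from nuclear versus surrounding ring intensity ratio, PBS as neutral control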

record_sequence | percentage of EdU-negative (%)
MVPRISAAIFIFELLGSNSEGVTDLRLWLCQPAPRCGEWTYNPLEQCCDDGVILDLNQTRLCGSSCTFWPCFQHCCLESLGSQNQTVVRFKVPGMKPDCKSSPITRICAQEYHPKSPVSRSDLI [Q6B9Z1] | 24.3
MRLLQLLFRASPATLLLVLCLQLGANKAQDNTRKIIIKNFDIPKSVRPNDEVTAVLAVQTELKECMVVKTYLISSIPLQGAFNYKYTACLCDDNPKTFYWDFYTNRTVQIAAVVDVIRELGICPDDAAVIPIKNNRFYTIEILKVE | 25.1
MNAFLLSALCLLGAWAALAGGVTVQDGNFSFSLESVKKLKDLQEPQEPRVGKLRNFAPIPGEPVVPILCSNPNFPEELKPLCKEPNAQEILQRLEEIAEDPGTCEICAYAACTGC | 27
MRLSWFRVLTVLSICLSAVATATGAEGKRKLQIGVKKRVDHCPIKSRKGDVLHMHYTGKLEDGTEFDSSLPQNQPFVFSLGTGQVIKGWDQGLLGMCEGEKRKLVIPSELGYGERGAPPKIPGGATLVFEVELLKIERRTEL | 25.5
MFSTKALLLAGLISTALAGPWANICAGKSSNEIRTCDRHGCGQYSAQRSQRPHQGVDILCSAGSTVYAPFTGMIVGQEKPYQNKNAINNGVRISGRGFCVKMFYIKPIKYKGPIKKGEKLGTLLPLQKVYPGIQSHVHIENCDSSDPTAYL | 23.8

---

// reported percentage of EdU-negative for each item listed
tested on: hTERT-HMEC; assay: percentage of EdU-negative (G0-arrested) nuclei per well, 72 h; higher = more G0 arrest; details: protein concentration 0.225 µM; reference: sequence is the full UniProt precursor, the tested protein was the secreted form or ectodomain
attribute_measured: percentage of EdU-negative (%)

record_sequence | numeric_readout
MLLEPGRGCCALAILLAIVDIQSGGCINITSSASQEGTRLNLICTVWHKKEEAEGFVVFLCKDRSGDCSPETSLKQLRLKRDPGIDGVGEISSQLMFTISQVTPLHSGTYQCCARSQKSGIRLQGHFFSILFTETGNYTVTGLKQRQHLEFSHNEGTLSSGFLQEKVWVMLVTSLVALQAL | 5.62
MARPLCTLLLLMATLAGALASSSKEENRIIPGGIYDADLNDEWVQRALHFAISEYNKATEDEYYRRPLQVLRAREQTFGGVNYFFDVEVGRTICTKSQPNLDTCAFHEQPELQKKQLCSFEIYEVPWEDRMSLVNSRCQEA | 6.38
MAAFPHKIIFFLVCSTLTHVAFSGIFNKRDFTRWPKPRCKMYIPLDPDYNADCPNVTAPVCASNGHTFQNECFFCVEQREFHYRIKFEKYGKCD [Q1W4C9] | 7.07
MKKFFTVAILAGSVLSTAHGSLLNLKAMVEAVTGRSAILSFVGYGCYCGLGGRGQPKDEVDWCCHAHDCCYQELFDQGCHPYVDHYDHTIENNTEIVCSDLNKTECDKQTCMCDKNMVLCLMNQTYREEYRGFLNVYCQGPTPNCSIYEPPPEEVTCSHQSPAPPAPP [Q9BZM2] | 5.34
MKRLVCVLLVCSSAVAQLHKDPTLDHHWHLWKKTYGKQYKEKNEEAVRRLIWEKNLKFVMLHNLEHSMGMHSYDLGMNHLGDMTSEEVMSLMSSLRVPSQWQRNITYKSNPNRILPDSVDWREKGCVTEVKYQGSCGACWAFSAVGALEAQLKLKTGKLVSLSAQNLVDCSTEKYGNKGCNGGFMTTAFQYIIDNKGIDSDASYPYKAMDQKCQYDSKYRAATCSKYTELPYGREDVLKEAVANKGPVSVGVDARHPSFFLYRSGVYYEPSCTQNVNHGVLVVGYGDLNGKEYWLVKNSWGHNFGEEGYIRMARNKGNHCGIASFPSYPEI | 9.97
MLVRRGARAGPRMPRGWTALCLLSLLPSGFMSLDNNGTATPELPTQGTFSNVSTNVSYQETTTPSTLGSTSLHPVSQHGNEATTNITETTVKFTSTSVITSVYGNTNSSVQSQTSVISTVFTTPANVSTPETTLKPSLSPGNVSDLSTTSTSLATSPTKPYTSSSPILSDIKAEIKCSGIREVKLTQGICLEQNKTSSCAEFKKDRGEGLARVLCGEEQADADAGAQVCSLLLAQSEVRPQCLLLVLANRTEISSKLQLMKKHQSDLKKLGILDFTEQDVASHQSYSQKTLIALVTSGALLAVLGITGYFLMNRRSWSPTGERLGEDPYYTENGGGQGYSSGPGTSPEAQGKASVNRGAQENGTGQATSRNGHSARQHVVADTEL | 5.89
MGPISAPSCRWRIPWQGLLLTASLFTFWNPPTTAQLTIEAVPSNAAEGKEVLLLVHNLPQDPRGYNWYKGETVDANRRIIGYVISNQQITPGPAYSNRETIYPNASLLMRNVTRNDTGSYTLQVIKLNLMSEEVTGQFSVHPETPKPSISSNNSNPVEDKDAVAFTCEPETQNTTYLWWVNGQSLPVSPRLQLSNGNRTLTLLSVTRNDVGPYECEIQNPASANFSDPVTLNVLYGPDAPTISPSDTYYHAGVNLNLSCHAASNPPSQYSWSVNGTFQQYTQKLFIPNITTKNSGSYACHTTNSATGRNRTTVRMITVSDALVQGSSPGLSARATVSIMIGVLARVALI | 9.55
MDPQCTMGLSNILFVMAFLLSGAAPLKIQAYFNETADLPCQFANSQNQSLSELVVFWQDQENLVLNEVYLGKEKFDSVHSKYMGRTSFDSDSWTLRLHNLQIKDKGLYQCIIHHKKPTGMIRIHQMNSELSVLANFSQPEIVPISNITENVYINLTCSSIHGYPEPKKMSVLLRTKNSTIEYDGVMQKSQDNVTELYDVSISLSVSFPDVTSNMTIFCILETDKTRLLSSPFSIELEDPQPPPDHIPWITAVLPTVIICVMVFCLILWKWKKKKRPRNSYKCGTNTMEREESEQTKKREKIHIPERSDEAQRVFKSSKTSSCDKSDTCF | 6.71
MAGSPTCLTLIYILWQLTGSAASGPVKELVGSVGGAVTFPLKSKVKQVDSIVWTFNTTPLVTIQPEGGTIIVTQNRNRERVDFPDGGYSLKLSKLKKNDSGIYYVGIYSSSLQQPSTQEYVLHVYEHLSKPKVTMGLQSNKNGTCVTNLTCCMEHGEEDVIYTWKALGQAANESHNGSILPISWRWGESDMTFICVARNPVSRNFSSPILARKLCEGAADDPDSSMVLLCLLLVPLLLSLFVLGLFLWFLKRERQEEYIEEKKRVDICRETPNICPHSGENTEYDTIPHTNRTILKEDPANTVYSTVEIPKKMENPHSLLTMPDTPRLFAYENVI [Q9NQ25] | 6.3
MEKIPVSAFLLLVALSYTLARDTTVKPGAKKDTKDSRPKLPQTLSRGWGDQLIWTQTYEEALYKSKTSNKPLMIIHHLDECPHSQALKKVFAENKEIQKLAEQFVLLNLVYETTDKHLSPDGQYVPRIMFVDPSLTVRADITGRYSNRLYAYEPADTALLLDNMKKALKLLKTEL | 7.88
MYTAIPQSGSPFPGSVQDPGLHVWRVEKLKPVPVAQENQGVFFSGDSYLVLHNGPEEVSHLHLWIGQQSSRDEQGACAVLAVHLNTLLGERPVQHREVQGNESDLFMSYFPRGLKYQEGGVESAFHKTSTGAPAAIKKLYQVKGKKNIRATERALNWDSFNTGDCFILDLGQNIFAWCGGKSNILERNKARDLALAIRDSERQGKAQVEIVTDGEEPAEMIQVLGPKPALKEGNPEEDLTADKANAQAAALYKVSDATGQMNLTKVADSSPFALELLISDDCFVLDNGLCGKIYIWKGRKANEKERQAALQVAEGFISRMQYAPNTQVEILPQGHESPIFKQFFKDWK | 6.38

---

system: hTERT-HMEC; assay: percentage of EdU-negative (G0-arrested) nuclei per well, 72 h; higher = more G0 arrest; conditions: protein concentration 0.225 µM; reference: sequence is the full UniProt precursor, the tested protein was the secreted form or ectodomain
attribute_measured: percentage of EdU-negative (%)

record_sequence | target_of_assay | attribute_measured | numeric_readout
MKLPLLLALLFGAVSALHLRSETSTFETPLGAKTLPEDEETPEQEMEETPCRELEEEEEWGSGSEDASKKDGAVESISVPDMVDKNLTCPEEEDTVKVVGIPGCQTCRYLLVRSLQTFSQAWFTCRRCYRGNLVSIHNFNINYRIQCSVSALNQGQVWIGGRITGSGRCRRFQWVDGSRWNFAYWAAHQPWSRGGHCVALCTRGGHWRRAHCLRRLPFICSY | hTERT-HMEC | percentage of EdU-negative | 4.45
MKGWGWLALLLGALLGTAWARRSQDLHCGACRALVDELEWEIAQVDPKKTIQMGSFRINPDGSQSVVEVPYARSEAHLTELLEEICDRMKEYGEQIDPSTHRKNYVRVVGRNGESSELDLQGIRIDSDISGTLKFACESIVEEYEDELIEFFSREADNVKDKLCSKRTDLCDHALHISHDEL [Q9Y2B0] | hTERT-HMEC | percentage of EdU-negative | 6.74
MDSSREPTLGRLDAAGFWQVWQRFDADEKGYIEEKELDAFFLHMLMKLGTDDTVMKANLHKVKQQFMTTQDASKDGRIRMKELAGMFLSEDENFLLLFRRENPLDSSVEFMQIWRKYDADSSGFISAAELRNFLRDLFLHHKKAISEAKLEEYTGTMMKIFDRNKDGRLDLNDLARILALQENFLLQFKMDACSTEERKRDFEKIFAYYDVSKTGALEGPEVDGFVKDMMELVQPSISGVDLDKFREILLRHCDVNKDGKIQKSELALCLGLKINP | hTERT-HMEC | percentage of EdU-negative | 5.6
